Measured values drawn from ChEMBL document CHEMBL5050850 for this set.

MEASUREMENT DESCRIPTION: Cmax in mouse at 50 mg/kg, po
Format: ADME, organism-based
Design: route oral, dose 50 mg/kg
CONDITION INFO: in vivo
OBSERVED PROPERTY: Cmax (µM)

{"columns": ["COMPOUND", "OBSERVED PROPERTY", "UNIT TEXT", "VALUE REPORTED"],
 "data": [
  ["FC(F)(F)c1cc2c(NC3CCCc4ccccc43)ncnc2[nH]1 (stereo in doubt)", "Cmax", "µM", 9.8]
]}

* * *

MEASUREMENT DESCRIPTION: Cmax in mouse at 1 mg/kg, iv
Assay type: ADME, organism-based
Design: route intravenous, dose 1 mg/kg
CONDITION INFO: in vivo

{"columns": ["MOLECULE", "UNIT TEXT", "Cmax"],
 "data": [
  ["FC(F)(F)c1cc2c(NC3CCCc4ccccc43)ncnc2[nH]1 (stereo in doubt)", "nM", 1450]
]}

* * *

MEASUREMENT DESCRIPTION: Brain concentration in mouse at 10 mg/kg, po measured at 2 hrs
Assay type: ADME, organism-based
CONDITION INFO: read-out: Drug uptake
OBSERVED PROPERTY: concentration at 2 h (ng/g)

{"columns": ["COMPOUND", "VALUE REPORTED"],
 "data": [
  ["FC(F)(F)c1cc2c(NC3CCCc4ccccc43)ncnc2[nH]1 (stereo in doubt)", 435]
]}

* * *

MEASUREMENT DESCRIPTION: Brain concentration in mouse at 50 mg/kg, po measured at 0.5 hrs
Format: ADME, organism-based
CONDITION INFO: read-out: Drug uptake

{"columns": ["COMPOUND", "concentration at 0.5 h"],
 "data": [
  ["FC(F)(F)c1cc2c(NC3CCCc4ccccc43)ncnc2[nH]1 (stereo in doubt)", "3340 ng/g"]
]}

* * *

MEASUREMENT DESCRIPTION: MRT (infinity) in mouse at 10 mg/kg, po
Assay type: ADME, organism-based
CONDITION INFO: in vivo
OBSERVED PROPERTY: MRT inf (h)

{"columns": ["COMPOUND", "OBSERVED PROPERTY", "VALUE REPORTED"],
 "data": [
  ["FC(F)(F)c1cc2c(NC3CCCc4ccccc43)ncnc2[nH]1 (stereo in doubt)", "MRT inf", 17.4]
]}

* * *

Measured Activity of individual entries
Test system: HeLa
MEASUREMENT DESCRIPTION: Cytotoxicity against human HeLa MKYP cells assessed as percentage of DAPI-positive cells at 50 uM and measured by DAPI staining method
Type: toxicity, cell-based
OBSERVED PROPERTY: Activity (%)

{"columns": ["COMPOUND", "UNIT TEXT", "VALUE REPORTED"],
 "data": [
  ["Clc1cccc(CNc2ncnc3nc[nH]c23)c1", "%", 12.5],
  ["Cc1nc2c(N[C@H](C)c3ccccc3)ncnc2[nH]1", "%", 9.7],
  ["COc1ncc(CNc2ncnc3[nH]c(C(F)(F)F)cc23)cn1", "%", 5.8],
  ["CN1CCC(Nc2ncnc3[nH]c(C(F)(F)F)cc23)c2ccccc21 (stereo unspecified)", "%", 28.1],
  ["COc1cc(CNc2ncnc3[nH]c(C4CC4)nc23)ccn1", "%", 7.1],
  ["FC(F)(F)c1cc2c(NC3CCc4ccccc43)ncnc2[nH]1 (stereo in doubt; 17)", "%", 2.3],
  ["FC(F)(F)c1cc2c(NC3CCOc4ccccc43)ncnc2[nH]1 (stereo unspecified)", "%", 22.3],
  ["COc1ncccc1CNc1ncnc2[nH]c(C(F)(F)F)cc12", "%", 7.6],
  ["FC(F)(F)c1cc2c(NC3CCCc4ncncc43)ncnc2[nH]1 (stereo unspecified)", "%", 12],
  ["c1ccc(CCNc2ncnc3[nH]cnc23)cc1", "%", 19.7],
  ["FC(F)(F)c1cc2c(N[C@H]3COc4ccccc43)ncnc2[nH]1", "%", 22.8]
]}
